Tested on: NCI-H1734
Assay: relative viability (nuclei count vs DMSO), 5 days (fraction); higher = more cells survive
Conditions: first compound 4 µM

| Molecule | Tgt | relative viability |
| --- | --- | --- |
| Cc1sc2c(c1C)C(c1ccc(Cl)cc1)=N[C@@H](CC(=O)OC(C)(C)C)c1nnc(C)n1-2 [JQ1] + CC(C)C[C@H](NC(=O)[C@H](Cc1ccccc1)NC(=O)c1cnccn1)B(O)O [Bortezomib] (partner 0.002 µM) | NCI-H1734 | 0.474 |
| Cc1sc2c(c1C)C(c1ccc(Cl)cc1)=N[C@@H](CC(=O)OC(C)(C)C)c1nnc(C)n1-2 [JQ1] + CS(=O)(=O)CCNCc1ccc(-c2ccc3ncnc(Nc4ccc(OCc5cccc(F)c5)c(Cl)c4)c3c2)o1 [Lapatinib] (partner 2 µM) | NCI-H1734 | 1.04 |

###

Tested on: NCI-H2085
Assay: relative viability (nuclei count vs DMSO), 5 days (fraction); higher = more cells survive
Details: first compound 0.8 µM

| Compound | relative viability |
| --- | --- |
| O=c1[nH]c2ccccc2n1C1CCN(CCCC(c2ccc(F)cc2)c2ccc(F)cc2)CC1 [Pimozide] + CCNC(=O)c1noc(-c2cc(C(C)C)c(O)cc2O)c1-c1ccc(CN2CCOCC2)cc1 [Luminespib] (partner 0.01 µM) | 0.4 |
| Cc1cnc(-c2cnc(NCCNc3ccc(C#N)cn3)nc2-c2ccc(Cl)cc2Cl)[nH]1 + O=C(CCCCCCC(=O)Nc1ccccc1)NO [Vorinostat] (partner 1 µM) | 0.824 |
| Cc1cnc(-c2cnc(NCCNc3ccc(C#N)cn3)nc2-c2ccc(Cl)cc2Cl)[nH]1 + CC(C)C[C@H](NC(=O)[C@H](Cc1ccccc1)NC(=O)c1cnccn1)B(O)O [Bortezomib] (partner 0.002 µM) | 0.957 |
| O=c1[nH]c2ccccc2n1C1CCN(CCCC(c2ccc(F)cc2)c2ccc(F)cc2)CC1 [Pimozide] + O=C(CCCCCCC(=O)Nc1ccccc1)NO [Vorinostat] (partner 1 µM) | 0.723 |
| Cc1cnc(-c2cnc(NCCNc3ccc(C#N)cn3)nc2-c2ccc(Cl)cc2Cl)[nH]1 + C[C@@H](Oc1cc(-c2cnn(C3CCNCC3)c2)cnc1N)c1c(Cl)ccc(F)c1Cl [Crizotinib] (partner 1 µM) | 1.06 |
| Cc1cnc(-c2cnc(NCCNc3ccc(C#N)cn3)nc2-c2ccc(Cl)cc2Cl)[nH]1 + O=C(c1cc(Cc2n[nH]c(=O)c3ccccc23)ccc1F)N1CCN(C(=O)C2CC2)CC1 [Olaparib] (partner 8 µM) | 0.711 |
| O=c1[nH]c2ccccc2n1C1CCN(CCCC(c2ccc(F)cc2)c2ccc(F)cc2)CC1 [Pimozide] + Cc1nc(Nc2ncc(C(=O)Nc3c(C)cccc3Cl)s2)cc(N2CCN(CCO)CC2)n1 [Dasatinib] (partner 0.075 µM) | 0.221 |
| O=c1[nH]c2ccccc2n1C1CCN(CCCC(c2ccc(F)cc2)c2ccc(F)cc2)CC1 [Pimozide] + CC(C)C[C@H](NC(=O)[C@H](Cc1ccccc1)NC(=O)c1cnccn1)B(O)O [Bortezomib] (partner 0.002 µM) | 1.04 |

###

System: SK-MES-1
Experiment: relative viability (nuclei count vs DMSO), 5 days (fraction); higher = more cells survive
Details: first compound 0.01581 µM
This section presents molecules with their documented relative viability values.
Measured quantity: relative viability

| Molecule | Meas value |
| --- | --- |
| COc1cc2nccc(Oc3ccc(NC(=O)Nc4cc(C)on4)c(Cl)c3)c2cc1OC [Tivozanib] + Cc1nc(NC(=O)N2CCC[C@H]2C(N)=O)sc1-c1ccnc(C(C)(C)C(F)(F)F)c1 [Alpelisib] (partner 2 µM) | 1.08 |
| COc1cc2nccc(Oc3ccc(NC(=O)Nc4cc(C)on4)c(Cl)c3)c2cc1OC [Tivozanib] + Cc1cc(Nc2cc(N3CCN(C)CC3)nc(Sc3ccc(NC(=O)C4CC4)cc3)n2)n[nH]1 [Tozasertib] (partner 0.1 µM) | 0.888 |
| Nc1ccn([C@@H]2O[C@H](CO)[C@@H](O)[C@@H]2O)c(=O)n1 [Cytarabine] + C[C@@H](Oc1cc(-c2cnn(C3CCNCC3)c2)cnc1N)c1c(Cl)ccc(F)c1Cl [Crizotinib] (partner 1 µM) | 0.741 |
| Nc1ccn([C@@H]2O[C@H](CO)[C@@H](O)[C@@H]2O)c(=O)n1 [Cytarabine] + COc1cc2c(Oc3ccc(NC(=O)C4(C(=O)Nc5ccc(F)cc5)CC4)cc3F)ccnc2cc1OCCCN1CCOCC1 [Foretinib] (partner 0.25 µM) | 0.704 |
